Where do these numbers come from? They come from patent US4623662A.

tested on: cholesterol absorption; assay: Inhibition of cholesterol absorption in rats fed 1% cholesterol:0.5% cholic acid diet; format: in vivo, male Sprague-Dawley rats; conditions: po, 336 h; rat; dose .03% of the diet, 2 weeks; read-out: SS (serum sterol), percentage of control values
Known response vs control in vivo at 0.03 % of a selection of compounds
Lab book: enter the figure in %, no units written.

Below, each entry is followed by its recorded response vs control in vivo at 0.03 % result.
Compound structure: CCCCc1ccc(CN(Cc2ccccc2)C(=O)Nc2c(C)cc(C)cc2C)cc1
Unit label: %
Test value: 53

Compound structure: CCCCCCCN(Cc1cccs1)C(=O)Nc1cc(C)c(C)cc1C
Unit label: %
Test value: 54

Compound structure: CCCCCCCN(Cc1ccc(CCCC)cc1)C(=O)Nc1ccc(F)cc1F
Unit label: %
Test value: 35

Compound structure: CCCCc1ccc(CN(CCCCC[Si](C)(C)C)C(=O)Nc2ccc(F)cc2F)cc1
Unit label: %
Test value: 62

Compound structure: CCCCCCCN(Cc1ccc(CCCC)cc1)C(=O)Nc1cc(C)c(Cl)cc1C
Unit label: %
Test value: 48

Compound structure: CCCCOc1ccc(CN(Cc2ccccc2)C(=O)Nc2ccc(Cl)cc2C(F)(F)F)cc1
Unit label: %
Test value: 58

Query block: GET /values?readout=response vs control in vivo at 0.03 %&item= CCCCc1ccc(CN(CCCCCCO)C(=O)Nc2ccc(Cl)cc2C)cc1
Result block: 6

Query block: GET /values?readout=response vs control in vivo at 0.03 %&item= CCCCc1ccc(CN(CCC(C)(C)C)C(=O)Nc2ccc(C(F)(F)F)cc2)cc1
Result block: 100

Query block: GET /values?readout=response vs control in vivo at 0.03 %&item= CCCCOc1ccc(CN(CCC(C)(C)C)C(=O)Nc2c(Cl)cc(Cl)cc2Cl)cc1
Result block: 52

Query block: GET /values?readout=response vs control in vivo at 0.03 %&item= CCCCc1ccc(CN(CCCCCCO)C(=O)Nc2c(Cl)cc(Cl)cc2Cl)cc1
Result block: 35
